System: A549
Test name: relative viability (normalised to negative control = 1, bortezomib = 0) (fraction); higher = less cytotoxic
Reported conditions: inflammatory serum-free RHB-A with cytokines + LPS; 5 d + 24 h CellTiter-Blue; compound 30 nM; GSK126 pretreatment: none (vehicle)
Where a name gives a salt, the structure may show the parent alone.
Property name: relative viability
Answers are plain numbers.

NC(=O)c1ccc(N(C(N)=O)c2c(F)cccc2F)nc1-c1ccc(F)cc1F    0.873
Cn1cc(C2=C(c3ccc(Cl)cc3Cl)C(=O)NC2=O)c2ccccc21    0.778
Cc1ccc(-n2nc(C(C)(C)C)cc2NC(=O)Nc2ccc(OCCN3CCOCC3)c3ccccc23)cc1    0.937
Cc1ccc(-c2cc(C(F)(F)F)nn2-c2ccc(S(N)(=O)=O)cc2)cc1 [Celecoxib]    0.787
Cn1cc(-c2ccc3nnc(Sc4ccc5ncccc5c4)n3n2)cn1    0.846
CNC(=O)CN1CCC(Oc2cc3c(Nc4cccc(Cl)c4F)ncnc3cc2OC)CC1    0.525
CCS(=O)(=O)Nc1ccc2[nH]c(O)c(C(=Nc3ccc(CN4CCCCC4)cc3)c3ccccc3)c2c1 [Hesperadin]    0.598
CCN(CC)CCNC(=O)c1c(C)[nH]c(/C=C2\C(=O)Nc3ccc(F)cc32)c1C [Sunitinib; Sunitinib Malate; Sunitinib (free base)]    0.832

Please state relative viability for every compound in the list that follows.
1. CCN1CCN(Cc2ccc(-c3cc4c(N[C@H](C)c5ccccc5)ncnc4[nH]3)cc2)CC1
2. CCCS(=O)(=O)Nc1ccc(F)c(C(=O)c2c[nH]c3ncc(-c4ccc(Cl)cc4)cc23)c1F [vemurafenib]
3. O=C(c1ccc(/C=C/c2n[nH]c3ccccc23)cc1)N1CCNCC1
4. CN(C)Cc1cccc(N=C(c2ccccc2)c2c(O)[nH]c3cc(C(=O)N(C)C)ccc23)c1

0.693
0.848
0.862
0.864

I need relative viability for every entry listed below, if you could help.
1. CO[C@@H](C(=O)N1Cc2[nH]nc(NC(=O)c3ccc(N4CCN(C)CC4)cc3)c2C1)c1ccccc1
2. CC(C)c1cnn2c(NCc3ccccc3)cc(NCCCCCCN)nc12 [BS-181 hydrochloride]
3. O=NN(CCCl)C(=O)NC1CCCCC1 [Lomustine, CCNU; Lomustine]
4. CN1CCN(CCOc2cc(OC3CCOCC3)c3c(Nc4c(Cl)ccc5c4OCO5)ncnc3c2)CC1 [AZD0530(Saracatinib)]
5. O=C(NOC[C@H](O)CO)c1ccc(F)c(F)c1Nc1ccc(I)cc1F

0.622
0.821
0.973
0.827
0.291

Under A549: relative viability value of O=C1CCC(N2C(=O)c3ccccc3C2=O)C(=O)N1 (stereo not drawn) ? 0.862

====

System: A549
Test name: relative viability (normalised to negative control = 1, bortezomib = 0) (fraction); higher = less cytotoxic
Reported conditions: inflammatory serum-free RHB-A with cytokines + LPS; 5 d + 24 h CellTiter-Blue; compound 300 nM; GSK126 pretreatment: 5 uM GSK126
Property name: relative viability
Give bare numbers.

Cc1cc(Nc2cc(N3CCN(C)CC3)nc(/C=C/c3ccccc3)n2)n[nH]1    0.827
COc1cc2nccc(Oc3ccc(NC(=O)Nc4cc(C)on4)c(Cl)c3)c2cc1OC    1.1
O=C1NC(=O)/C(=C/c2ccc3nccc(-c4ccncc4)c3c2)S1    0.747

Give relative viability for all compounds that follow.
1. COC(=O)Nc1ccc(-c2nc(N3CCOCC3)c3cnn(C4CCN(Cc5cccnc5)CC4)c3n2)cc1
2. C[C@]12CC[C@@H]3c4ccc(O)cc4C[C@@H](CCCCCCCCC[S+]([O-])CCCC(F)(F)C(F)(F)F)[C@H]3[C@@H]1CC[C@@H]2O (some centres undefined)
3. OC[C@H]1O[C@@H](n2cnc3c2N=CNC[C@H]3O)C[C@@H]1O
4. CC(C)n1nc(-c2cc3cc(O)ccc3[nH]2)c2c(N)ncnc21
5. COc1ncc(-c2ccc3nccc(-c4ccnnc4)c3c2)cc1NS(=O)(=O)c1ccc(F)cc1F
6. Clc1ccc(C2(c3ccc(-c4cn[nH]c4)cc3)CCNCC2)cc1

[0.847, 0.85, 0.931, 0.37, 0.00279, 0.734]

====

Test system: A549
Test name: relative viability (normalised to negative control = 1, bortezomib = 0) (fraction); higher = less cytotoxic
Reported conditions: inflammatory serum-free RHB-A with cytokines + LPS; 5 d + 24 h CellTiter-Blue; compound 300 nM; GSK126 pretreatment: 5 uM GSK126
Provide the reported relative viability of each item.

O=NN(CCCl)C(=O)NCCCl [Carmustine]    0.894
O=C(O)c1ccc2c(c1)nc(Nc1cccc(Cl)c1)c1ccncc12    0.728
NC(=O)c1ccc(-c2nc(-c3ccccn3)c(-c3ccc4c(c3)OCO4)[nH]2)cc1    0.817
Nc1nccc(Oc2ccc(NC(=O)c3c[nH]cc(-c4ccc(F)cc4)c3=O)cc2F)c1Cl    1.14
COc1cc(Nc2ncc(F)c(Nc3ccc4c(n3)N(COP(=O)(O)O)C(=O)C(C)(C)O4)n2)cc(OC)c1OC    0.952
CCN1CCN(Cc2ccc(-c3cc4c(N[C@H](C)c5ccccc5)ncnc4[nH]3)cc2)CC1    0.446
C=CC(=O)Nc1cccc(Oc2nc(Nc3ccc(N4CCN(C)CC4)cc3OC)ncc2Cl)c1    0.782
Cc1[nH]c(/C=C2\C(=O)Nc3ccc(S(=O)(=O)N(C)c4cccc(Cl)c4)cc32)c(C)c1C(=O)N1CCN(C)CC1    1.03

Switching to the query record.
Can you look up the measured relative viability of Cc1cccc(-c2[nH]c(C(C)(C)C)nc2-c2ccc3nccnc3c2)n1 for me? 0.799

====

Provide the recorded relative viability for the entries that follow.
Tested on: A549
Test name: relative viability (normalised to negative control = 1, bortezomib = 0) (fraction); higher = less cytotoxic
Reported conditions: inflammatory serum-free RHB-A with cytokines + LPS; 5 d + 24 h CellTiter-Blue; compound 30 nM; GSK126 pretreatment: 5 uM GSK126
Answers are plain numbers.

Observe how each entry below is paired with its result.
CO[C@H]1C[C@@H]2CC[C@@H](C)[C@@](O)(O2)C(=O)C(=O)N2CCCC[C@H]2C(=O)O[C@H]([C@H](C)C[C@@H]2CC[C@@H](O)[C@H](OC)C2)CC(=O)[C@H](C)/C=C(\C)[C@@H](O)[C@@H](OC)C(=O)[C@H](C)C[C@H](C)/C=C/C=C/C=C/1C [Sirolimus; RAPAMYCIN; Rapamycin(Sirolimus); Rapamycin]    0.576
Nc1ncnc2c1c(-c1cccc(OCc3ccccc3)c1)cn2C1CC(CN2CCCC2)C1 (stereo not drawn)    0.733

Now for a further compound.
So what's the measured relative viability for this one? Nc1cccc2c1CN(C1CCC(=O)NC1=O)C2=O (stereo not drawn) [Lenalidomide] 0.854

====

Tested on: A549
Test name: relative viability (normalised to negative control = 1, bortezomib = 0) (fraction); higher = less cytotoxic
Reported conditions: inflammatory serum-free RHB-A with cytokines + LPS; 5 d + 24 h CellTiter-Blue; compound 30 nM; GSK126 pretreatment: 5 uM GSK126
With a cut-off of 0.8, any relative viability strictly below it is called y; any relative viability meeting it or above is called n.

O=C1NC(=O)/C(=C/c2ccc(-c3ccc(F)cc3O)o2)S1    n
O=C(O)c1ccc2c(c1)nc(Nc1cccc(Cl)c1)c1ccncc12    y

Here's an entry: COC(=O)Nc1ccc(-c2nc(N3CCOCC3)c3cnn(C4CCN(Cc5cccnc5)CC4)c3n2)cc1 . Is its relative viability below 0.8? n

Given C[C@@H](CN1CC(=O)NC(=O)C1)N1CC(=O)NC(=O)C1 , is recorded relative viability strictly lower than 0.8? n

In plain terms, does COc1cc2/c(=N/c3ccc(Br)cc3F)nc[nH]c2cc1OCC1CCN(C)CC1 come in under 0.8 for relative viability? n

Does the reported relative viability of CS(=O)(=O)N1CCN(Cc2cc3nc(-c4cccc5[nH]ncc45)nc(N4CCOCC4)c3s2)CC1 stay below 0.8? y

====

System: A549
Test name: relative viability (normalised to negative control = 1, bortezomib = 0) (fraction); higher = less cytotoxic
Reported conditions: inflammatory serum-free RHB-A with cytokines + LPS; 5 d + 24 h CellTiter-Blue; compound 300 nM; GSK126 pretreatment: 5 uM GSK126
Structures can show the parent of a compound that is named as a salt.
Field: relative viability. Provide a value for each of the molecules that follow.

Look over these answered cases.
CNC(=O)c1cc(Oc2ccc(NC(=O)Nc3ccc(Cl)c(C(F)(F)F)c3)cc2)ccn1 [Sorafenib tosylate; Sorafenib; Sorafenib Tosylate]    1.12
CC[C@]1(O)C[C@@H]2CN(CCc3c([nH]c4ccccc34)[C@@](C(=O)OC)(c3cc4c(cc3OC)N(C)[C@H]3[C@@](O)(C(=O)OC)[C@H](OC(C)=O)[C@]5(CC)C=CCN6CC[C@]43[C@@H]65)C2)C1 [Vinblastine sulfate salt; Vinblastine sulfate]    0.277
Fc1cc(-c2cccc3ncc(-c4cnn(C5CCNCC5)c4)nc23)cc(F)c1CN1CCOCC1    1.11
COc1cc(Nc2c(C#N)cnc3cc(OCCCN4CCN(C)CC4)c(OC)cc23)c(Cl)cc1Cl [Bosutinib(SKI-606)]    0.65

For every record below, what is its relative viability?
1. COc1cc2c(N3CCN(C(=O)Nc4ccc(OC(C)C)cc4)CC3)ncnc2cc1OCCCN1CCCCC1
2. Nc1nc(F)nc2c1ncn2[C@@H]1O[C@H](COP(=O)(O)O)[C@@H](O)[C@@H]1O [Fludarabine; Fludarabine phosphate]
3. O=C(O)C1(C(=O)O)CCC1.[NH2-].[NH2-].[Pt+2]
4. CO[C@H]1C[C@@H]2CC[C@@H](C)[C@@](O)(O2)C(=O)C(=O)N2CCCC[C@H]2C(=O)O[C@H]([C@H](C)C[C@@H]2CC[C@@H](O)[C@H](OC)C2)CC(=O)[C@H](C)/C=C(\C)[C@@H](O)[C@@H](OC)C(=O)[C@H](C)C[C@H](C)/C=C/C=C/C=C/1C [Sirolimus; RAPAMYCIN; Rapamycin(Sirolimus); Rapamycin]
5. Cn1cc(-c2ccc3nnc(Sc4ccc5ncccc5c4)n3n2)cn1

1: 0.829; 2: 0.891; 3: 0.742; 4: 0.552; 5: 0.859

Below is a list of molecules. For each, state its recorded relative viability.
1. Cn1c(=O)c(F)c(Nc2ccc(I)cc2F)c2c(=O)n(C[C@@H](O)CO)cnc21
2. COc1cc2c(Nc3ccc(NC(=O)c4ccccc4)cc3)ncnc2cc1OCCCN1CCOCC1
3. COc1ccc2c3n(c(=NC(=O)c4cccnc4)nc2c1OC)CCN3
4. Cc1ccc(NC(=O)c2ccc(CN3CCN(C)CC3)cc2)cc1Nc1nc(-c2cccnc2)cs1
5. Nc1nc(N)c2nc(-c3cccc(O)c3)c(-c3cccc(O)c3)nc2n1
6. CN(C)c1nc(N(C)C)nc(N(C)C)n1

1: 0.0544; 2: 0.963; 3: 0.578; 4: 0.841; 5: 0.664; 6: 0.931

For the molecule shown here, NC1(Cc2ccc(Cl)cc2)CCN(c2ncnc3[nH]ccc23)CC1 , give the reported relative viability. 0.839
